Entry source: ChEMBL document CHEMBL4411310

Target: T-cell receptor (Homo sapiens) (UniProt P04437+P01848+P04435+P03979)
Assay: Effect on TCR signaling in OKT3-induced human T-cells harboring SiRNA assessed as restoration of restimulation-induced cell death at 1 to 10 uM preincubated for 30 mins followed by OKT3 stimulation and measured 24 hrs post dose by propidium iodide staining based flow cytometry
The source made the active and inactive calls. No cut-off for these calls is given here.
Labels: active, inactive

Cc1nc2sccn2c(=O)c1CCN1CCC(=C(c2ccc(F)cc2)c2ccc(F)cc2)CC1 ... inactive
O=C1/C(=C\C=C\c2ccco2)SC(=S)N1NS(=O)(=O)c1ccccc1 ... active
Cc1ccc2c(C(=O)CN3CCN(C(=O)c4ccco4)CC3)c(C)[nH]c2c1 ... inactive
O=C(c1ccc(F)cc1)C1CCN(CCn2c(=O)[nH]c3ccccc3c2=O)CC1 ... inactive
